# System: OVCAR-8
# Protocol Notes: NCI tumour cell line growth inhibition, 48 h
Active and inactive are the calls of the source. No stated cut-off is given here; in the data, active = GI50 up to about 1.1 µM and inactive = higher.
Reported Endpoint: GI50

Recorded results for 6 compounds are shown here.
CC12CP(=O)(c3ccccc3)CC1C2(Cl)Cl (stereo not given): > 100 µM (inactive)
Cc1ccc(Sc2ccccc2[N+](=O)[O-])cc1: 32.2 µM (inactive)
COc1cc2c(cc1OC)[C@@H]([C@H](O)c1ccccc1)NCC2: > 100 µM (inactive)
COc1cc2c3c(n(Cc4ccccc4)c(=O)c2cc1OC)-c1ccccc1C3=O: > 100 µM (inactive)
Cc1ccc(/C=C2\CNC/C(=C\c3ccc(C)cc3)C2=O)cc1: 2.19 µM (inactive)
COc1cc(/C=c2\sc3n(c2=O)C(c2ccc(Cl)cc2)C2=C(CCCC2C)N=3)cc(OC)c1OC (stereo not given): > 100 µM (inactive)

Ask: Give the value of GI50 reported for the following: N#CC(c1ccccc1)c1cccc2ccccc12 (stereo not given)
Reply: 27.4 µM (inactive)

Ask: Give the value of GI50 reported for the following: C=C1C(=O)O[C@H]2[C@H]3O[C@@H](C[C@@H]12)[C@@]1(C)CC[C@H](O1)[C@H](C)CCC[C@H]3C
Reply: 1.38 µM (inactive)

Ask: Give the value of GI50 reported for the following: O=C(CCSC(CC(=O)c1ccc(Cl)cc1)c1ccc(Cl)cc1)Nc1ccc(Cl)cc1 (stereo not given)
Reply: 14.9 µM (inactive)

Ask: Give the value of GI50 reported for the following: N#Cc1nnn(-c2ccccc2)c1O
Reply: > 100 µM (inactive)

The reported measurements were obtained from ChEMBL document CHEMBL1201862.
